Cited source for all entries: patent US20130217664A1

Each entry below carries its reported IC50.
# test system: human JAK3 (Homo sapiens)
# Construct: catalytic domain (amino acids 781-1124; catalog number PV3855)
# Sequence (P52333 781-1124): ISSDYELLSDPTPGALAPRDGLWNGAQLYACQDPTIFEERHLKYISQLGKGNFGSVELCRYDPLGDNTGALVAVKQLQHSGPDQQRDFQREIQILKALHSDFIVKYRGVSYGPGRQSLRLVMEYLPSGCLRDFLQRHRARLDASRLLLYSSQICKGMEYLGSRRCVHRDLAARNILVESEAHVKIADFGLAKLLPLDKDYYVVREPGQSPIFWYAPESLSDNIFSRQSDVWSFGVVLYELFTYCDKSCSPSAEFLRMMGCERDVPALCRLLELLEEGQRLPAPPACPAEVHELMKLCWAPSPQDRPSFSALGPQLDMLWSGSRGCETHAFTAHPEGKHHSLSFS
# assay text: JAK3 inhibition assay
# measurement context: recombinant human JAK3 catalytic domain; polyGT substrate

Reference set (6 entries):
{"compound": "Cc1cc(-c2cn[nH]c2)ccc1N(C)c1cc2c(cn1)ncn2C", "IC50": "501 to 1000 nM"}
{"compound": "CCc1cc(N2CC(C#N)C2)ncc1N(C)c1cc2c(cn1)ncn2C", "IC50": "101 to 500 nM"}
{"compound": "CCc1ccccc1N(CCC#N)c1cc2c(cn1)ncn2C", "IC50": "> 1000 nM"}
{"compound": "CCc1cc(N2CCCC(C#N)C2)ncc1N(C)c1cc2c(cn1)ncn2C (stereo not drawn)", "IC50": "0.01 to 100 nM"}
{"compound": "CCc1cc(F)ccc1N(C)c1cc2c(cn1)ncn2C", "IC50": "> 1000 nM"}
{"compound": "CCc1cc(-c2ccccc2)ccc1N(C)c1cc2c(cn1)ncn2C", "IC50": "101 to 500 nM"}

Task: Would you kindly share the measured IC50 for COc1ccc(COc2ccc(N(C)c3cc4c(cn3)ncn4C)c(C)c2)cc1 ?
Output: > 1000 nM

Task: Thanks! And CCc1cc(C2(CCNS(C)(=O)=O)COC2)ccc1N(C)c1cc2c(cn1)ncn2C ?
Output: 101 to 500 nM

Task: Same thing, different compound: CCc1cc(-c2ccsc2)ncc1N(C)c1cc2c(cn1)ncn2C
Output: 0.01 to 100 nM

Task: Another compound to check: CCc1cc(CN2CCC(F)(F)CC2)ccc1N(C)c1cc2c(cn1)ncn2C
Output: > 1000 nM

Task: And then CCn1nc(C)cc1N(C)c1cc2c(cn1)ncn2C , what is it?
Output: > 1000 nM

Task: Input CCc1cc(C2=CCN(C(=O)NC3COC3)CC2)ccc1N(C)c1cc2c(cn1)ncn2C
Output: 101 to 500 nM

Task: For CCc1cc(C2=CCN(C(=O)OCC#N)CC2)ccc1N(C)c1cc2c(cn1)ncn2C then?
Output: 101 to 500 nM

Task: Same thing, different compound: CCc1cc(C2=CCN(C(=O)N3CCC3)CC2)ccc1N(C)c1cc2c(cn1)ncn2C
Output: 101 to 500 nM

Task: Moving on to CN(c1cc2c(cn1)ncn2C)c1ccc(CNS(C)(=O)=O)cc1F
Output: 101 to 500 nM

Task: Note, next up: Cc1cc(C(N)=O)ccc1N(C)c1cc2c(cn1)ncn2C
Output: > 1000 nM

Task: For CCc1cc(C2=CCN(C(C)=O)CC2)ccc1N(C)c1cc2c(cn1)ncn2C then?
Output: 101 to 500 nM

Task: Same for CNC(=O)c1ccc(N(C)c2cc3c(cn2)ncn3C)c(C)c1
Output: > 1000 nM
